# Test system: extracellular plant proteases
# EXPERIMENTAL_DETAILS: in vitro
# CONDITION_SUMMARY: 10% extracellular fluid from tobacco leaf, pH 7.4
Ends that are not written are not given here.
MEASUREMENT_TYPE: remaining at 0.5 h (%)
Give the value, in units of %, as a plain number.

Qu. I have this sequence here, GIGKFLHSAKKFGKAFVGEIMNS [Peptide No. 1, Magainin 2] , and I need its recorded remaining at 0.5 h.
Ans. 18

Values compiled from patent US5519115A.
